Test system: Staphylococcus aureus
Assay details: Bactericidal activity against Staphylococcus aureus ATCC 25923 assessed as log reduction in bacterial colonies preincubated for 5 mins followed by bacterial plating on Luria-Bertani plates and measured after 18 to 24 hrs relative to control
Format: functional
Please go through the items and note down their log(activity).
Answers are plain numbers.

CC1(C)NC(=O)N(CCC[N+](C)(C)C)C1=O.[Cl-]; 0
CC1(C)C(=O)N(CCC[N+](C)(C)CCCS(=O)(=O)[O-])C(=O)N1Cl; 0.1
CC1(C)C(=O)N(CCC[N+](C)(C)CC(=O)[O-])C(=O)N1Cl; 0.18
CC1(C)NC(=O)N(CCC[N+](C)(C)CCCS(=O)(=O)[O-])C1=O; 0
CC1(C)C(=O)N(CCC[N+](C)(C)C)C(=O)N1Cl.[Cl-]; 0.05

Look up log(activity) for the entries below, preserving their order.
1. CC1(C)C(=O)N(CCO)C(=O)N1Cl
2. CC1(C)NC(=O)N(CCO)C1=O
3. CC1(C)NC(=O)N(CCC[N+](C)(C)CC(=O)[O-])C1=O

OUT:
[6.83, 0, 0]
